Header: IC50 / UniProtKB P00749 / multiple publications
Write it as a number; the unit µM goes unstated.

GET /values?readout=IC50&item= `N=C(N)NC(=O)c1ncc(NCCc2ccccc2)nc1N` 120

// query: `COc1ccc(-c2ccc(C(=O)N[C@H](CO)C(C)(C)C)cc2C(=O)O)c(C(=O)Nc2ccc(C(=N)N)cc2)n1` 5.9

// query: `NCc1cccc(-c2cccc(Oc3nc(OCC(=O)O)c(F)cc3F)c2)c1` 3.28

// query: `N=C(N)c1ccc(/C=C2/N=C(c3ccccc3)OC2=O)cc1` 8.67

// query: `N=C(N)Nc1ccc(CNc2cnc3cc(C(=O)NC4CCCC4)ccn23)cc1` 0.174

// query: `CCOP(=O)(CNc1nc(N)c(C(=O)NC(=N)N)nc1Cl)OCC` 37

// query: `N=C(N)Nc1ccc(CNc2c(Cc3ccccc3)nc3ccccn23)cc1` 30.2

// query: `N=C(N)Nc1ccc(CNc2c(Cc3cccc(Cl)c3)nc3ccccn23)cc1` 18

// query: `N#CCNc1nc(N)c(C(=O)NC(=N)N)nc1Cl` 50
